Test: Cmax in human at 400 mg administered as single dose
Details: in vivo

| COMPOUND | Cmax / ng/mL |
| --- | --- |
| CCOc1noc2cc(OCCC3CCN(c4ccc(C)nn4)CC3)ccc12 [VAPENDAVIR] | 1890 |

----------
Test: in vivo
Conditions: male, Lister hooded, rat, po, 50 mg/kg
Description: Tmax in male lister hooded rat at 50 mg/kg, po
REPORTED PROPERTY: Tmax (h)

| SMILES STRUCTURE | UNIT LABEL | MEASURED RESULT |
| --- | --- | --- |
| CCOc1noc2cc(OCCC3CCN(c4ccc(C)nn4)CC3)ccc12 | h | 16 |

----------
Test: in vivo
Settings: male, beagle, dog, po, 50 mg/kg
Description: Tmax in male beagle dog at 50 mg/kg, po
REPORTED PROPERTY: Tmax (h)

| SMILES STRUCTURE | REPORTED PROPERTY | MEASURED RESULT |
| --- | --- | --- |
| CCOc1noc2cc(OCCC3CCN(c4ccc(C)nn4)CC3)ccc12 | Tmax | 14.7 |
